- Tested on: MT-4 cells
- protocol_summary: Cytotoxicity in mock-infected MT-4 cells, MTT assay
- Type: cell-based
Exercise: state measured CC50 for each of the compounds provided.

>>> reported("O=C1Nc2ccc(Cl)cc2[C@@](C#CC2CC2)(C(F)(F)F)O1 [EFV, reference compound]")
"> 4.59 µM"

Recall the recorded CC50 for Cc1ccnc2c1NC(=O)c1cccnc1N2C1CC1 [NVP, reference compound] with MT-4 cells and state it.
> 15 µM

###

- tested_target: HIV-1 RT-associated RNase H (Human immunodeficiency virus type 1 group M subtype B)
- Construct: HIV-1 group M subtype B heterodimeric reverse transcriptase (RT) was expressed and purified
- protocol_summary: HIV-1 RT-associated RNase H inhibition (fluorescent RNA/DNA hybrid)
- conditions_used: HIV-1 RT wt; average of three independent determinations; read-out: IC50, concentration required to inhibit 50% of in vitro RNase H activity
pIC50: −log10 of the molar value.
I would appreciate it if you labelled entries yes (1) when pIC50 is 5 or higher, otherwise no (0).

>>> label_value("COc1cccc2c1NC(=O)C2=NNc1cc(=O)[nH]c(=O)[nH]1")
"no (0)"
>>> label_value("O=C1Nc2ccc(F)cc2C1=NNc1cc(=O)[nH]c(=O)[nH]1")
"no (0)"
>>> label_value("O=C1Nc2ccccc2C1=NNc1cc(=O)[nH]c(=O)[nH]1")
"no (0)"
>>> label_value("O=C1Nc2c(F)cccc2C1=NNc1cc(=O)[nH]c(=O)[nH]1")
"no (0)"
>>> label_value("O=C1Nc2cc(Br)c(Br)cc2C1=NNc1c[nH]c(=O)[nH]c1=O [Compound 11b]")
"yes (1)"
>>> label_value("O=C1Nc2cc(OC(F)(F)F)ccc2C1=NNc1cc(=O)[nH]c(=O)[nH]1")
"no (0)"

Please tell me: is the compound COc1ccc2c(c1)NC(=O)C2=NNc1cc(=O)[nH]c(=O)[nH]1 at or over 5 in terms of pIC50?
no (0)

Has O=C1Nc2cc(Cl)c(Cl)cc2C1=NNc1c[nH]c(=O)[nH]c1=O [Compound 11a] a recorded pIC50 greater than or equal to 5?
yes (1)

###

- tested_target: HIV-1 RT-associated RNase H (Human immunodeficiency virus type 1 group M subtype B, UniProt P04585)
- Construct: HIV-1 group M subtype B heterodimeric reverse transcriptase (RT) was expressed and purified
- protocol_summary: Kinetic analysis of RNase H inhibition, competition with RNA/DNA substrate
- conditions_used: competition with RNA substrate
observation_type: Ki (nM)
Give bare numbers, in nM.

>>> reported("O=C1Nc2cc(Cl)c(Cl)cc2C1=NNc1c[nH]c(=O)[nH]c1=O [Compound 11a]")
550

// next entry
Given O=C1Nc2cc(Cl)c(Cl)cc2C1=NNc1cc(=O)[nH]c(=O)[nH]1 , state its recorded Ki.
2310

###

- tested_target: HIV-1 RT-associated RNase H (Human immunodeficiency virus type 1 group M subtype B)
- Construct: HIV-1 group M subtype B heterodimeric reverse transcriptase (RT) was expressed and purified
- protocol_summary: HIV-1 RT-associated RNase H inhibition (fluorescent RNA/DNA hybrid)
- conditions_used: HIV-1 RT wt; average of three independent determinations; read-out: IC50, concentration required to inhibit 50% of in vitro RNase H activity
observation_type: pIC50
Numbers only, as −log10 of the molar value.

Use these answered entries as a reference point.
>>> reported("O=C1Nc2ccc(Cl)cc2C1=NNc1cc(=O)[nH]c(=O)[nH]1")
4.23
>>> reported("O=C1Nc2cc(F)ccc2C1=NNc1cc(=O)[nH]c(=O)[nH]1")
4.25
>>> reported("Cc1cccc2c1NC(=O)C2=NNc1cc(=O)[nH]c(=O)[nH]1")
4.59

Count: 4. Required value per item: pIC50.
1. O=C1Nc2cc(F)c(F)cc2C1=NNc1cc(=O)[nH]c(=O)[nH]1
2. O=C1Nc2c(cccc2C(F)(F)F)C1=NNc1cc(=O)[nH]c(=O)[nH]1
3. O=C1Nc2c(Br)cccc2C1=NNc1cc(=O)[nH]c(=O)[nH]1
4. O=C1Nc2cc(Cl)c(Cl)cc2C1=NNc1cc(=O)[nH]c(=O)[nH]1

1: 4.19; 2: 4.62; 3: 4.36; 4: 5.11
